run.description: Chemical stability of compound in pH 5.5 citrate buffer at 50 uM assessed as compound recovery after 72 hrs by spectrometric analysis
Type: physicochemical
measurement.context: read-out: Drug recovery
Square brackets hold non-standard residues; d marks the D form. Peptide text beside a SMILES is read from it. * marks the point of attachment. Propanoyl(3-cHex) = O=C(CCC1CCCCC1)*; Dab = NCC[C@H](N)C(=O)O; Dap = NC[C@H](N)C(=O)O
measurement.label: remaining at 72 h, 50 µM (%)

{"molecule": "CC(C)C[C@H](NC(=O)CCC1CCCCC1)C(=O)N[C@@H](CC(C)C)C(=O)N[C@@H](CCN)C(=O)N1CCC[C@H]1C(=O)N[C@@H](CCCNC(=N)N)C(=O)N[C@@H](CC(N)=O)C(N)=O ({Propanoyl(3-cHex)}-LL[Dab]PRN-NH2)", "quantity.unit": "%", "reported.measurement": 98}
{"molecule": "CC(C)C[C@H](NC(=O)CCC1CCCCC1)C(=O)N[C@@H](CC(C)C)C(=O)N[C@@H](CN)C(=O)N1CCC[C@H]1C(=O)N[C@@H](CCCNC(=N)N)C(=O)N[C@@H](CC(N)=O)C(N)=O ({Propanoyl(3-cHex)}-LL[Dap]PRN-NH2)", "quantity.unit": "%", "reported.measurement": 81}

---

run.description: Chemical stability of compound in pH 5.5 acetate buffer at 50 uM assessed as compound recovery after 72 hrs by spectrometric analysis
Assay type: physicochemical
measurement.context: read-out: Drug recovery
Square brackets hold non-standard residues; d marks the D form. Peptide text beside a SMILES is read from it. * marks the point of attachment. Propanoyl(3-cHex) = O=C(CCC1CCCCC1)*; Dap = NC[C@H](N)C(=O)O
measurement.label: remaining at 72 h, 50 µM (%)
Output spec: scalar in %, unitless text.

// query Which remaining at 72 h, 50 µM value is on record for CC(C)C[C@H](NC(=O)CCC1CCCCC1)C(=O)N[C@@H](CC(C)C)C(=O)N[C@@H](CN)C(=O)N1CCC[C@H]1C(=O)N[C@@H](CCCNC(=N)N)C(=O)N[C@@H](CC(N)=O)C(N)=O ({Propanoyl(3-cHex)}-LL[Dap]PRN-NH2) ?
// result 89

---

run.description: Chemical stability of compound in pH 7.4 phosphate buffer at 50 uM assessed as compound recovery after 72 hrs by spectrometric analysis
Format: physicochemical
measurement.context: read-out: Drug recovery
Square brackets hold non-standard residues; d marks the D form. Peptide text beside a SMILES is read from it. * marks the point of attachment. Propanoyl(3-cHex) = O=C(CCC1CCCCC1)*; Dab = NCC[C@H](N)C(=O)O; Dap = NC[C@H](N)C(=O)O
measurement.label: remaining at 72 h, 50 µM (%)

{"compound": "CC(C)C[C@H](NC(=O)CCC1CCCCC1)C(=O)N[C@@H](CC(C)C)C(=O)N[C@@H](CN)C(=O)N1CCC[C@H]1C(=O)N[C@@H](CCCNC(=N)N)C(=O)N[C@@H](CC(N)=O)C(N)=O ({Propanoyl(3-cHex)}-LL[Dap]PRN-NH2)", "quantity.unit": "%", "remaining at 72 h, 50 µM": 87}
{"compound": "CC(C)C[C@H](NC(=O)CCC1CCCCC1)C(=O)N[C@@H](CC(C)C)C(=O)N[C@@H](CCN)C(=O)N1CCC[C@H]1C(=O)N[C@@H](CCCNC(=N)N)C(=O)N[C@@H](CC(N)=O)C(N)=O ({Propanoyl(3-cHex)}-LL[Dab]PRN-NH2)", "quantity.unit": "%", "remaining at 72 h, 50 µM": 95}

Numbers sourced from ChEMBL document CHEMBL4619728.
